Hey, just so you know, these numbers are from ChEMBL document CHEMBL5143675.

assay: Toxicity in Streptococcus pneumoniae TIGR4 infected CD-1 mouse model assessed as mortality at 4 mg/kg,iv measured after 72 hrs post; format: organism-based; settings: in vivo
*1 amine or outer side, *2 acyl side, *3 side chain or, on linkers, in order; H or OH if unused. Where a SMILES comes first, the peptide text is derived from it. Bridges are numbered along the chain shown (N, C = ends). [ ]: non-standard residue; d: D form. Dab = NCC[C@H](N)C(=O)O; CO = O=C([*:1])[*:2]
recordedMetric: mortality at 72 h (%)
Please reply with the bare figure in % and do not write the unit itself.

QUERY: State the recorded mortality at 72 h for this entry: CC[C@H](C)[C@H](NC(=O)[C@H](Cc1ccccc1)NC(=O)[C@@H]1CCNC(=O)NCC[C@H](NC(=O)[C@H](CO)NC(=O)[C@H](CC(C)C)NC(=O)[C@H](CCCNC(=N)N)NC(=O)[C@H](CCSC)NC(=O)[C@H](C)N)C(=O)N[C@@H](Cc2ccccc2)C(=O)N[C@@H](Cc2ccccc2)C(=O)N[C@@H](CCCNC(=N)N)C(=O)N1)C(=O)N[C@@H](CC(C)C)C(=O)N[C@@H](CCC(N)=O)C(=O)N[C@@H](CCCNC(=N)N)C(=O)N[C@@H](CCCCN)C(=O)N[C@@H](CCCCN)C(=O)O (H-AMRLS[Dab]FFR[Dab]FILQRKK-OH; linker 6-10 via CO)
RESULT: 50

---

assay: Agonist activity against Streptococcus pneumoniae TIGR4-pcomX-lacZ strain expressing ComD2 receptor assessed as activation of ComD2 receptor activity by beta-galactosidase reporter gene assay
recordedMetric: EC50 (nM)
Please reply with the bare figure in nM and do not write the unit itself.

QUERY: State the recorded EC50 for this entry: `H-EMRISRIILDFLFLRKK-OH`
RESULT: 50.7

---

assay: Antagonist activity against Streptococcus pneumoniae TIGR4-pcomX-lacZ strain expressing ComD2 receptor assessed as inhibition of ComD2 receptor activity by beta-galactosidase reporter gene assay
pIC50: −log10 of the molar value. Where a SMILES comes first, the peptide text is derived from it. [ ]: non-standard residue; d: D form. Dab = NCC[C@H](N)C(=O)O; Dap = NC[C@H](N)C(=O)O
recordedMetric: pIC50

QUERY: State the recorded pIC50 for this entry: CC[C@H](C)[C@H](NC(=O)[C@H](Cc1ccccc1)NC(=O)[C@H](CN)NC(=O)[C@H](CCCNC(=N)N)NC(=O)[C@H](Cc1ccccc1)NC(=O)[C@H](Cc1ccccc1)NC(=O)[C@H](CCN)NC(=O)[C@H](CO)NC(=O)[C@H](CC(C)C)NC(=O)[C@H](CCCNC(=N)N)NC(=O)[C@H](CCSC)NC(=O)[C@H](C)N)C(=O)N[C@@H](CC(C)C)C(=O)N[C@@H](CCC(N)=O)C(=O)N[C@@H](CCCNC(=N)N)C(=O)N[C@@H](CCCCN)C(=O)N[C@@H](CCCCN)C(=O)O (H-AMRLS[Dab]FFR[Dap]FILQRKK-OH)
RESULT: < 6.00
